# Test system: OVCAR-3 ovarian
# procedure_text: NCI tumour cell line growth inhibition, 48 h
experimental_endpoint: TGI

Request: Reported TGI for CCN(CC)CC(O)CNc1c2ccc(Cl)cc2nc2ccc(OC)cc12 (configuration not stated) : what is it?
Result: 4.26 µM

Request: Form field: reported TGI of COc1cc(C2CC(c3cccc(Nc4ccncc4)c3)=NN2c2ccccc2)cc(OC)c1OC (configuration not stated)
Result: 3.14 µM

Request: For the molecule "CCNc1cnc2c(n1)c(=O)n(C)c(=O)n2C" , what TGI is on record?
Result: > 100 µM

Request: So what's the measured TGI for this one? "C=C(C)c1cc(C(C)(C)C)cc(C(=C)C)c1S(C)(=O)=O"
Result: > 100 µM

Request: Would you kindly share the measured TGI for "COc1ccc(C(=S)N(C)NC(=O)CC(=O)NN(C)C(=S)c2ccc(OC)cc2)cc1" ?
Result: > 100 µM

Request: Could you tell me which TGI is on file for "CC(=O)Oc1cc(C(C)C)c(OCCN(C)C)cc1C" ?
Result: > 100 µM

Request: Form field: reported TGI of "CNC(=S)/C(C#N)=C(\N)N1CCN(C)CC1"
Result: > 100 µM

Request: What value of measured TGI is listed for O=c1ncc(I)cn1C1CC(O)C(CO)O1 (configuration not stated) ?
Result: > 3250 µM

Request: I have this molecule here, "O=c1ccccc(-c2ccc(Br)cc2)c1O" , and I need its recorded TGI.
Result: 27.6 µM

Request: I have this molecule here, "COc1ccc(/C=C/C(=O)c2sc(NC(=S)NC(=O)c3ccc(Cl)cc3)nc2C)cc1OC" , and I need its recorded TGI.
Result: > 100 µM

Request: Fill in: TGI of "CCn1c2ccccc2c2cc(N=Nc3ccc(C#N)cc3)ccc21" is ___
Result: > 100 µM

Request: Returns the measured TGI for the input molecule. Input: "Cc1nc2cc(-c3nn(C(C)C)c4ncnc(N)c34)ccc2o1"
Result: 0.627 µM

Request: Give its TGI value. Item: "CCc1n[nH]c(=O)n1O"
Result: > 100 µM

Request: Sample "COc1cc2nn(-c3ccccc3)nc2c2nonc12" — what was its TGI?
Result: > 100 µM

Request: I am curious: what TGI value has been reported for "O=C(Cc1ccc(F)cc1)NC1=C(Cl)C(=O)c2ccccc2C1=O" ?
Result: 9.33 µM

Request: Query: TGI; subject: "CNCCCNc1nc2ccccc2c2c(=O)c3cc(F)ccc3sc12"
Result: 2.95 µM

###

# Test system: M14 melanoma
# procedure_text: NCI tumour cell line growth inhibition, 48 h
experimental_endpoint: TGI

Worked cases, answers included:
> print(dat)
                                   compound  experimental.endpoint  reported.measurement
1  COc1cc(-c2nn(-c3cccc(NC(=O)Nc4cccc(C(F)(F)F)c4)c3)cc2-c2ccncc2)ccc1Cl                    TGI               2.16 µM
2         Cc1cc2cn3c4ccc(O)cc4nc(N)c3c2cc1C                    TGI               1.18 µM
3         CSc1cc(-c2cc3ccccc3o2)oc(=O)c1C#N                    TGI              > 100 µM
4  Cc1ccc(C2=Nc3c(N)nc(N)nc3NC(c3cccc(Nc4ccnc5cc(C(F)(F)F)ccc45)c3)C2)cc1 (stereo not given)                    TGI               3.43 µM
5                  Cc1csc2nc(-c3ccncc3)cn12                    TGI              > 100 µM
6  COc1ccc2c(c1)[n+](=O)c(C(=O)CC(=O)C(=O)Nc1cccc(Cl)c1C)c(C)n2[O-]                    TGI              > 100 µM
7  Cc1ccccc1NC(=O)C(=O)c1c(O)c2ccc(O)cc2oc1=O                    TGI              > 100 µM
8  Nc1nc(N)c2ncn(CCCC(c3ccccc3)P(=O)(O)O)c2n1 (stereo not given)                    TGI              > 100 µM

Request: Fill blank: measured TGI of the compound "Nn1c(SCC(=O)O)nc2ccccc2c1=O" is ____.
Result: > 100 µM

Request: Given the compound C=C1C(O)C2C(=C(CCC3CC3)C13CC3)C(=O)C(C)(C)C2O (stereo not given) , what is its reported TGI?
Result: > 100 µM

Request: What does the record list as TGI for "NS(=O)(=O)c1cc2c(cc1Cl)NC(/C(=N/NC(=O)c1ccncc1)C1C(=O)NC(=O)NC1=O)=NS2(=O)=O" ?
Result: > 100 µM

Request: For the compound shown here, CCN(CC)CCN1C(=O)CC2[C@@H]3CCc4cc(OC)ccc4C3CC[C@]2(C)C1=O (stereo not given in full) , give the reported TGI.
Result: 33.1 µM

Request: Would you kindly share the measured TGI for CCC1=CCN(c2ccc(C)cc2)OC1c1ccc(OC)cc1 (stereo not given) ?
Result: > 100 µM

Request: Look up TGI: O=C1OCC2=C1C(c1ccc3c(c1)OCO3)c1cc3c(cc1O2)OCO3 (stereo not given)
Result: 11.4 µM

Request: Suppose we examine the compound CCOC(=O)N1CCN(P(=O)(Nc2ccc3nc(NC(=O)OC)[nH]c3c2)Oc2ccccc2)CC1 (stereo not given) ; what TGI value has been reported?
Result: > 100 µM
